PROTOCOL: in vitro
REPORTED CONDITIONS: African green monkey
Counter-ions that a name gives are not always drawn.
Field: cytotoxicity. Provide a value for each of the compounds that follow.
Give just the number in %; leave the unit off.

Incoming: Which cytotoxicity is reported for this compound? COC(=O)[C@@]12OC[C@]34[C@H]([C@@H](O)[C@@H]1O)[C@@]1(C)CC(=O)C(O)=C(C)[C@@H]1C[C@H]3OC(=O)[C@H](OC(=O)/C=C(\C)C(C)C)[C@@H]24 [Bruceantin]
Outgoing: 83.3

Incoming: Fill blank: measured cytotoxicity of the compound `CCCc1cc(C)[nH]c(=O)c1CNC(=O)c1cc(-c2ccnc(N3CCN(C)CC3)c2)cc2c1cnn2C(C)C` is ____.
Outgoing: 16.6

Incoming: Please report the recorded cytotoxicity for `Cc1ccc(NC(=O)Nc2cc(C(F)(F)F)ccc2F)cc1Nc1ccc2c(c1)NC(=O)/C2=C\c1ccc[nH]1` .
Outgoing: 61.4

Incoming: Would you kindly share the measured cytotoxicity for `CN1CCC(c2cn(C)c3ccc(OS(=O)(=O)c4c(F)cccc4F)cc23)CC1` ?
Outgoing: 18.2

Incoming: Need cytotoxicity of O=C(/C=C/c1ccccc1)NC(NC(=S)Nc1cccc2cccnc12)C(Cl)(Cl)Cl (stereo not shown) , thanks.
Outgoing: 15.9

Incoming: Quick one: cytotoxicity for CC(CN(C)C)CN1c2ccccc2CCc2ccccc21 (stereo not shown) [Trimipramine maleate] ?
Outgoing: 19.8

Incoming: Need cytotoxicity, item `CN1CC[C@@H](c2c(O)cc(O)c3c(=O)cc(-c4ccc(C(F)(F)F)cc4Cl)oc23)[C@@H]1CO`
Outgoing: 12.9

Incoming: Looking for the measured cytotoxicity of CNCCCC1c2ccccc2C=Cc2ccccc21 [Protriptyline hydrochloride] , can you help?
Outgoing: 17.4

Incoming: Which value of cytotoxicity has been reported for CN(C)CCC=C1c2ccccc2C=Cc2ccccc21 [Cyclobenzaprine hydrochloride] in the records?
Outgoing: 23.9

Incoming: Entry `CN(C)CCCN1c2ccccc2CCc2ccccc21` has what cytotoxicity?
Outgoing: 0

Incoming: Return reported cytotoxicity; argument: `CC1=C(c2ccc(O)cc2)[C@H](c2ccc(OCCN3CCCCC3)cc2)Oc2cc(O)ccc21`
Outgoing: 54.1

Incoming: For the compound shown here, CN(C)CCCN1c2ccccc2CCc2ccc(Cl)cc21 [Clomipramine hydrochloride] , give the reported cytotoxicity.
Outgoing: 33.2

Incoming: Field request: cytotoxicity | item: `N#Cc1ccc2c(c1)N(CCCN1CCC(O)CC1)c1ccccc1S2`
Outgoing: 23.1

Incoming: // cytotoxicity lookup, key: `CCOC(=O)[C@H](CCc1ccccc1)N[C@H]1CCc2ccccc2N(CC(=O)O)C1=O`
Outgoing: 0

Incoming: What value of cytotoxicity has been recorded for this entry: CN(C)CC/C=C1\c2ccccc2CSc2ccccc21 [Dosulepin hydrochloride]
Outgoing: 17.2

Incoming: // returns reported cytotoxicity for input `NC(=O)c1cnc(N[C@@H]2CCCC[C@@H]2N)nc1Nc1cccc(-n2nccn2)c1`
Outgoing: 24.9

Incoming: // cytotoxicity lookup, key: CN1CCCCC1CCN1c2ccccc2Sc2ccc([S+](C)[O-])cc21 (stereo not shown)
Outgoing: 16.1

Incoming: Sample `CC/C(=C(\c1ccccc1)c1ccc(OCCN(C)C)cc1)c1ccccc1` — what was its cytotoxicity?
Outgoing: 93.9

Incoming: Need cytotoxicity, item `COc1cc(N2CCN(C)CC2)ccc1Nc1nccc(-c2cn(C)c3cnccc23)n1`
Outgoing: 31.2

Incoming: Given the compound O[C@H]1[C@H]2c3cc4c(cc3CN3CCC(=C[C@@H]1O)[C@H]23)OCO4 [Lycorine hydrochloride] , what is its reported cytotoxicity?
Outgoing: 90.6

Incoming: Could you share which cytotoxicity value was measured for `CNCCC=C1c2ccccc2CCc2ccccc21` ?
Outgoing: 0

meta.source: paper PMC7942396
